Origin of values: ChEMBL document CHEMBL5137101

- TARGET: von Hippel-Lindau disease tumor suppressor/SWI/SNF-related matrix-associated actin-dependent regulator of chromatin subfamily A member 4 (Homo sapiens) (UniProt P51532+P40337)
- Sequence (P40337 whole entry, looked up): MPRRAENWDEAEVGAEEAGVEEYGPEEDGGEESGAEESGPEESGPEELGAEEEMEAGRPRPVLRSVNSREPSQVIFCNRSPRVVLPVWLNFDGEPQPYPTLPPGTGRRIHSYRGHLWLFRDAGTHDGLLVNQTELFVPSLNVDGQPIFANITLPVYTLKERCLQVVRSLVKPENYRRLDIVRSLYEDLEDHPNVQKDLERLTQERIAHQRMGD
- Sequence (P51532 whole entry, looked up): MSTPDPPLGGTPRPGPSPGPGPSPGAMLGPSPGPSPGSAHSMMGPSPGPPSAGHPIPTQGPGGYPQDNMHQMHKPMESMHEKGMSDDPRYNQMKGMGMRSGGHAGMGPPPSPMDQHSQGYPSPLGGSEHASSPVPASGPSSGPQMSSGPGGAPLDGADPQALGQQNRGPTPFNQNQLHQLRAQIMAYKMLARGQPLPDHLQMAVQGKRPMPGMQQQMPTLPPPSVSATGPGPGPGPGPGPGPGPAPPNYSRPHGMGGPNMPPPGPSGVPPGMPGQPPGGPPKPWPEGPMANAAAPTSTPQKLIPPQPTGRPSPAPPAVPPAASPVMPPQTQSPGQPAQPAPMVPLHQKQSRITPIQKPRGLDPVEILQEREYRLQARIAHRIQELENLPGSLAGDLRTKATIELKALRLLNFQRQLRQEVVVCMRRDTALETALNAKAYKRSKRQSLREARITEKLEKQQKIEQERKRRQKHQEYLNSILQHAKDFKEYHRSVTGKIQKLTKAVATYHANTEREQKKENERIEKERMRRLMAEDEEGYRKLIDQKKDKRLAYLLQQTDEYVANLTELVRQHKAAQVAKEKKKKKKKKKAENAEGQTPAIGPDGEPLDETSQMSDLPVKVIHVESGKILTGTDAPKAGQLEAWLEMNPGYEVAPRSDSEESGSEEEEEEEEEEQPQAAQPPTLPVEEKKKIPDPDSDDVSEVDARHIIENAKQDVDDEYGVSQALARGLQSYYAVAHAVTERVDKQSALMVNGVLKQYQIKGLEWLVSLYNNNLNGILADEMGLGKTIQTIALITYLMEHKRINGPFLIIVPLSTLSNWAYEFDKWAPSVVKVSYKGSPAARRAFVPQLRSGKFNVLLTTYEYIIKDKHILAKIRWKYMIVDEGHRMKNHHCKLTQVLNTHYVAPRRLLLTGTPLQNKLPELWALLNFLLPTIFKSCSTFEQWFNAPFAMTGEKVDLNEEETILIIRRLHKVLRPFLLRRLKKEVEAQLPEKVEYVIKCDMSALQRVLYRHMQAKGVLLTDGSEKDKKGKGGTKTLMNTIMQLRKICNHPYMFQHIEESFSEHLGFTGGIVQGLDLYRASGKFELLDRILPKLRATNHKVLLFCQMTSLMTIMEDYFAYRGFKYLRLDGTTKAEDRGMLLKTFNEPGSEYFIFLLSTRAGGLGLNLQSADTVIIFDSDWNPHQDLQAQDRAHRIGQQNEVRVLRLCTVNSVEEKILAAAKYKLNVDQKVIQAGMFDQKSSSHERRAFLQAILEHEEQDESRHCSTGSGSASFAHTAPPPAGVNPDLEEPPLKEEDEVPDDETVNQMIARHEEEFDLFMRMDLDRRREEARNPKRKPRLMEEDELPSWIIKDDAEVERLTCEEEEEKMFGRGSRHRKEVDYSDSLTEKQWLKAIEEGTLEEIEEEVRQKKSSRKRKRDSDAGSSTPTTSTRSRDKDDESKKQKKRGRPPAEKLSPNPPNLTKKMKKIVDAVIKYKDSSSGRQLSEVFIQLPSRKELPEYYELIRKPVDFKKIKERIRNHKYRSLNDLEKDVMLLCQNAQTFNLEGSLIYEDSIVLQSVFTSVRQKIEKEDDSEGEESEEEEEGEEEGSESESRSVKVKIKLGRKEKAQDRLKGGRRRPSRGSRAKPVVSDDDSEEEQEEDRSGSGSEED
- ASSAY: Protac activity at E3 ubiquitin-protein ligase/SMARCA4 in human VCaP cells assessed as SMARCA4 degradation at 100 nM incubated for 16 hrs by Western blot analysis relative to control
- Assay type: cell-based
Provide the reported Activity of each item.
Numeric answer plus unit only.

In the examples that follow, each entry is paired with its recorded Activity.
- Cc1ncsc1-c1ccc([C@H](C)NC(=O)[C@@H]2C[C@@H](O)CN2C(=O)[C@@H](NC(=O)C2CCN(c3ccc(-c4cnnc(-c5ccccc5O)c4)cc3)CC2)C(C)(C)C)cc1: 0%
- Cc1ncsc1-c1ccc([C@H](C)NC(=O)[C@@H]2C[C@@H](O)CN2C(=O)[C@@H](NC(=O)CN2CCN(c3ccc(-c4cnnc(-c5ccccc5O)c4)cc3)CC2)C(C)(C)C)cc1: 0%
- Cc1ncsc1-c1ccc([C@H](C)NC(=O)[C@@H]2C[C@@H](O)CN2C(=O)[C@@H](NC(=O)CC2CCN(c3ccc(-c4cnnc(-c5ccccc5O)c4)cc3)CC2)C(C)(C)C)cc1: 40%
- Cc1ncsc1-c1ccc([C@H](C)NC(=O)[C@@H]2C[C@@H](O)CN2C(=O)[C@@H](NC(=O)CN2CCN(c3ccc(-c4cnnc(-c5ccccc5O)c4)cn3)CC2)C(C)(C)C)cc1: 0%
- Cc1ncsc1-c1ccc(CNC(=O)[C@@H]2C[C@@H](O)CN2C(=O)[C@@H](NC(=O)CN2CCC(c3ccc(-c4cnnc(-c5ccccc5O)c4)cc3)CC2)C(C)(C)C)cc1: 0%

Below: the item to evaluate.
Request the reported Activity associated with Cc1ncsc1-c1ccc([C@H](C)NC(=O)[C@@H]2C[C@@H](O)CN2C(=O)[C@@H](NC(=O)CN2CCC(c3ccc(-c4cnnc(-c5ccccc5O)c4)cc3)CC2)C(C)(C)C)cc1 0%

====

- TARGET: von Hippel-Lindau disease tumor suppressor/SWI/SNF-related matrix-associated actin-dependent regulator of chromatin subfamily A member 2 (Homo sapiens) (UniProt P51531+P40337)
- Sequence (P51531 whole entry, looked up, one chain of several): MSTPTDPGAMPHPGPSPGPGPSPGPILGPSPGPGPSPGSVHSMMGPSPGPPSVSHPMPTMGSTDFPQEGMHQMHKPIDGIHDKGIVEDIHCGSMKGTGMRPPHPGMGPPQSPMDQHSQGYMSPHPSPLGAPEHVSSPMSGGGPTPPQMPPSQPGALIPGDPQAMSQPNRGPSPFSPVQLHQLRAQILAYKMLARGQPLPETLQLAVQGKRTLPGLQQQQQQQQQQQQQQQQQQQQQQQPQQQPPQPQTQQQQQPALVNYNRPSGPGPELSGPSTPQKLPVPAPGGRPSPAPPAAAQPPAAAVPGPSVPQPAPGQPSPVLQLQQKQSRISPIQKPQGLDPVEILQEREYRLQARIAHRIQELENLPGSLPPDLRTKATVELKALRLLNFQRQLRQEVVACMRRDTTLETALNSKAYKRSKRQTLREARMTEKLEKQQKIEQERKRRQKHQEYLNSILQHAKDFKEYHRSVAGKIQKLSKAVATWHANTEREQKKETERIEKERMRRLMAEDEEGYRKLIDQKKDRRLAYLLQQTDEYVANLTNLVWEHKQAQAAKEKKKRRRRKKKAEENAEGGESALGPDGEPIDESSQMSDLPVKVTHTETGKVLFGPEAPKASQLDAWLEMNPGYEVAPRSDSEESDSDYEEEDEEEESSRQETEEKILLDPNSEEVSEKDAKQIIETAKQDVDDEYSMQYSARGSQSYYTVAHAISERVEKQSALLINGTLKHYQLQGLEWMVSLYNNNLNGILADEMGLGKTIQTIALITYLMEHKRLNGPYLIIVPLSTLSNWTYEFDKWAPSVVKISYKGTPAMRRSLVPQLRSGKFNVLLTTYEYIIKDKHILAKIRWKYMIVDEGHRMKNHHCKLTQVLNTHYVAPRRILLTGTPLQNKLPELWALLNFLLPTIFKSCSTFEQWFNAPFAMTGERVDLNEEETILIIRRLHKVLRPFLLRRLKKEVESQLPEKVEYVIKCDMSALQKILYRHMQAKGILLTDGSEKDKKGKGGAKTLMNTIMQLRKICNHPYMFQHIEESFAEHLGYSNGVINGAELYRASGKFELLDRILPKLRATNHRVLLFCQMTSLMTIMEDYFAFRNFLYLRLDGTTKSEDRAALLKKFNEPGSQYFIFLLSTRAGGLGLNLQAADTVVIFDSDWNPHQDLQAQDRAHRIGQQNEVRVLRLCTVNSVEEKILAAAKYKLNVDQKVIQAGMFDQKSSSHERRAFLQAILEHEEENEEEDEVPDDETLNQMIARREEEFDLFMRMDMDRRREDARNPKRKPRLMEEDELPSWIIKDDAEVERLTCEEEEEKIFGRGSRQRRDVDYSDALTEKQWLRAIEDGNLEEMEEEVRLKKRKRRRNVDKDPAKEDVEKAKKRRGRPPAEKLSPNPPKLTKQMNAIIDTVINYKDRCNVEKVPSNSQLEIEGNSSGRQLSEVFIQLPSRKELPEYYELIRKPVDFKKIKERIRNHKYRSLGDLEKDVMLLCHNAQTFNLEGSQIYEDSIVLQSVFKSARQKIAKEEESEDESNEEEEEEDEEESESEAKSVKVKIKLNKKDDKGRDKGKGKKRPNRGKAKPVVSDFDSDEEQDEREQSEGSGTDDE
- ASSAY: Protac activity at E3 ubiquitin-protein ligase/SMARCA2 in human VCaP cells assessed as SMARCA2 degradation at 100 nM incubated for 16 hrs by Western blot analysis relative to control
- Assay type: cell-based
Rule: measured Activity below 90% gets True; anything equal to or greater than 90% gets False.

A selection of reference data follows.
- Cc1ncsc1-c1ccc([C@H](C)NC(=O)[C@@H]2C[C@@H](O)CN2C(=O)[C@@H](NC(=O)CN2CCN(c3ccc(-c4cnnc(-c5ccccc5O)c4)cn3)CC2)C(C)(C)C)cc1: False
- Cc1ncsc1-c1ccc(CNC(=O)[C@@H]2C[C@@H](O)CN2C(=O)[C@@H](NC(=O)CN2CCC(c3ccc(-c4cnnc(-c5ccccc5O)c4)cc3)CC2)C(C)(C)C)cc1: True
- Cc1ncsc1-c1ccc([C@H](C)NC(=O)[C@@H]2C[C@@H](O)CN2C(=O)[C@@H](NC(=O)CC2CCN(c3ccc(-c4cnnc(-c5ccccc5O)c4)cc3)CC2)C(C)(C)C)cc1: False
- Cc1ncsc1-c1ccc([C@H](C)NC(=O)[C@@H]2C[C@@H](O)CN2C(=O)[C@@H](NC(=O)C2CCN(c3ccc(-c4cnnc(-c5ccccc5O)c4)cc3)CC2)C(C)(C)C)cc1: True

Please let me know if Cc1ncsc1-c1ccc([C@H](C)NC(=O)[C@@H]2C[C@@H](O)CN2C(=O)[C@@H](NC(=O)CN2CCN(c3ccc(-c4cnnc(-c5ccccc5O)c4)cc3)CC2)C(C)(C)C)cc1 shows Activity below 90%. False
